# TEST_SUMMARY: Pharmacokinetic Determination (Mouse PK)
# Type: in vivo, female CD-1 mice
# SETTINGS: female, CD-1, plasma, IV, 3.0 mg/kg
READOUT_TYPE: AUC(0-t) (µM·h)

Solved cases below.
[[record]]
molecule = "C[C@@H]1Cc2c([nH]c3ccccc23)[C@@H](c2ccc(NC3CN(CCCF)C3)cc2F)N1C12CC(C1)C2 [Compound 15]"
readout_type = "AUC(0-t)"
numeric_value = 0.892

[[record]]
molecule = "C[C@@H]1Cc2c([nH]c3ccccc23)[C@@H](c2c(F)cc(N[C@H]3CCN(CCCF)C3)cc2F)N1C12CC(C1)C2 [Compound 19]"
readout_type = "AUC(0-t)"
numeric_value = 2.15

[[record]]
molecule = "CCCN1CC[C@H](Nc2ccc([C@@H]3c4[nH]c5ccccc5c4C[C@@H](C)N3C34CC(C3)C4)cc2)C1 [Compound 72]"
readout_type = "AUC(0-t)"
numeric_value = 2.17


P: C[C@@H]1Cc2c([nH]c3ccccc23)[C@@H](c2c(F)cc(N[C@H]3CCN(CCCF)C3)cc2F)N1C12CC(CO)(C1)C2 (single isomer, unassigned) [Compound 70]
Q: CCCN1CC(Nc2ccc([C@@H]3c4[nH]c5ccccc5c4C[C@@H](C)N3C34CC(C3)C4)cc2)C1 [Compound 31]
I need your help: which of the pair P , Q has higher AUC(0-t)? // return label of chosen record
P
